assay: Thioflavin T (ThT) assay of fibril formation; format: physicochemical; conditions: formation of ThT positive aggregates
Ends that are not written are not given here.
QUANTITY: ThT signal (+/-)

Answered cases to consult:
SVSTVLTSKYR [HBA 132-142] ... -
LASVSTVL [HBA 130-137] ... +
AAHLPAEFTPAVHASLDKFLA [HBA(111–131)] ... -
ASVSTVL [HBA 131-137] ... +
KFLASVST [HBA 128-135] ... -

Lab book: ThT signal (+/-) of SVSTVL [HBA 132-137] noted as -
